# assayedTarget: Human recombinant PDE3A (hPDE3A) (Homo sapiens)
# Construct: purchased Scottish Biomedical; host or cells: Sf9 insect cells
# Sequence (Q14432 whole entry): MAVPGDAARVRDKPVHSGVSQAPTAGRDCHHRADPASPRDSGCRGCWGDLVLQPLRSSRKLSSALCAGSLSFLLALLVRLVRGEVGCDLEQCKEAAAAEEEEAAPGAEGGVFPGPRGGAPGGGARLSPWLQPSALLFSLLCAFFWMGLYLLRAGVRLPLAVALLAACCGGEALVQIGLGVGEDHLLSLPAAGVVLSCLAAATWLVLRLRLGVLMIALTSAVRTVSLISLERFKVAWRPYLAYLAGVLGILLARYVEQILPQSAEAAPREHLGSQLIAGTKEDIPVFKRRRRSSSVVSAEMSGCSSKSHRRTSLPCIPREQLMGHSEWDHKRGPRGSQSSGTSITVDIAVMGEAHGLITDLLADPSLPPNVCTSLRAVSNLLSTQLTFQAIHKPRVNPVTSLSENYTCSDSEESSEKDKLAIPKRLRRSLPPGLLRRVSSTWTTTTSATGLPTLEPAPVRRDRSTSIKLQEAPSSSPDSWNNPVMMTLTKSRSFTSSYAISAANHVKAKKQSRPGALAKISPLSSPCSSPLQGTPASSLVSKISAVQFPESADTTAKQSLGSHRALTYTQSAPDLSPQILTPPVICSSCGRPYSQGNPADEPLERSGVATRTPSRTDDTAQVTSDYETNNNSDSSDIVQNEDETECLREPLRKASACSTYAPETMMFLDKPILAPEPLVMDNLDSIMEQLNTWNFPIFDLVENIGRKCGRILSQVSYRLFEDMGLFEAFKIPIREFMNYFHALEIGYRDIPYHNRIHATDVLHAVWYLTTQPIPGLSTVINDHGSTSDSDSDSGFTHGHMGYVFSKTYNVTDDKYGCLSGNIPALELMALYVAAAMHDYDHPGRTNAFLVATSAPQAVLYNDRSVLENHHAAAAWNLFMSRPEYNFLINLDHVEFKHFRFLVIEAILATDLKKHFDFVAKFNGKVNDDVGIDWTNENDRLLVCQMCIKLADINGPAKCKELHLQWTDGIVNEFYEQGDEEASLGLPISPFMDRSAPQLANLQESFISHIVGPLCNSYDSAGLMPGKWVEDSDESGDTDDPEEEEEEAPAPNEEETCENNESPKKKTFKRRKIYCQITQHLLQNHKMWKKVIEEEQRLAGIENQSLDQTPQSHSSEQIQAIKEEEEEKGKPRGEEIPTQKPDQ
# testName: In vitro assay PDE3A (SPA, 3H-cAMP hydrolysis);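 further: the method names PDE3A and the table heading PDE3B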
# Format: biochemical
# details: hPDE3B pIC50; read-out: pIC50 (converted)
Lab note: cut-off is 4 µM. Strictly less in IC50 is yes. Exactly 4 µM or more is no.

{"structureString": "Cc1ccc(C(=O)N2CC[C@@H](C)[C@H](c3cc(C(F)F)nc4ncnn34)C2)c(C)n1", "assignedClass": "no"}
{"structureString": "Cc1cnc(C(=O)N2CC[C@@H](C)[C@H](c3cc(C(F)F)nc4ncnn34)C2)cn1", "assignedClass": "no"}
{"structureString": "C[C@@H]1CCN(C(=O)c2ncccc2N)C[C@H]1c1cc(C(F)F)nc2ncnn12", "assignedClass": "no"}
{"structureString": "C[C@@H]1CCN(C(=O)c2cc3c(nc2Cl)CCCC3)C[C@H]1c1cc(C(F)F)nc2ncnn12", "assignedClass": "yes"}
{"structureString": "C[C@@H]1CCN(C(=O)c2cccnc2F)C[C@H]1c1cc(C(F)F)nc2ncnn12", "assignedClass": "no"}
{"structureString": "COc1cc(C(=O)N2CC[C@@H](C)[C@H](c3cc(C(F)F)nc4ncnn34)C2)nc2ccccc12", "assignedClass": "yes"}
{"structureString": "Cc1cc([C@@H]2CN(C(=O)c3ccnc(Cl)c3)CC[C@H]2C)n2ncnc2n1", "assignedClass": "no"}
{"structureString": "C[C@@H]1CCN(C(=O)c2ccc3ncc(F)cc3c2)C[C@H]1c1cc(C(F)F)nc2ncnn12", "assignedClass": "yes"}
{"structureString": "O=C(c1ccc2ncc(F)cc2c1)N1[C@H]2CC[C@H](c3cc(C(F)F)nc4ncnn34)[C@@H]1CC2", "assignedClass": "no"}
{"structureString": "C[C@@H]1CCN(C(=O)c2c[nH]c3ccc(F)cc23)C[C@H]1c1cc(C(F)F)nc2ncnn12", "assignedClass": "yes"}
{"structureString": "C[C@@H]1CCN(C(=O)c2cc(-c3ccco3)nn2C)C[C@H]1c1cc(C(F)F)nc2ncnn12", "assignedClass": "yes"}
{"structureString": "Cc1cc([C@@H]2CN(C(=O)c3cc(C)c(Cl)c(C)c3)CC[C@H]2C)n2ncnc2n1", "assignedClass": "yes"}
{"structureString": "CCc1cc(C(=O)N2CC[C@@H](C)[C@H](c3cc(C(F)F)nc4ncnn34)C2)cc(C)n1", "assignedClass": "no"}
{"structureString": "COc1ccc(C(=O)N2CC[C@@H](C)[C@H](c3cc(C(F)F)nc4ncnn34)C2)cc1C#N", "assignedClass": "no"}
{"structureString": "C[C@@H]1CCN(C(=O)c2ccc(Cl)s2)C[C@H]1c1cc(C(F)F)nc2ncnn12", "assignedClass": "no"}
